Origin of values: patent US20060024337A1

experiment: Dissolving DHEA in water with amphiphilic block copolymers (film hydration, centrifugation, HPLC assay of supernatant); assay type: physicochemical; conditions: 25 °C, thermodynamic from solid, no polymer ("natural" solubility)
assay_readout: solubility at 24 h (µg/mL)
Output spec: scalar in µg/mL, unitless text.

The value of solubility at 24 h measured for the molecule C[C@]12CC[C@H](O)CC1=CC[C@@H]1[C@@H]2CC[C@]2(C)C(=O)CC[C@@H]12 [DHEA, dehydroepiandrosterone] turned out to be 1

###

assay: Dissolving Parsol 1789 in water with amphiphilic block copolymers (film hydration, centrifugation, HPLC assay of supernatant); assay type: physicochemical; conditions: 25 °C, thermodynamic from solid, no polymer ("natural" solubility)
assay_readout: solubility at 24 h (µg/mL)
Output spec: scalar in µg/mL, unitless text.

The value of solubility at 24 h measured for the compound "COc1ccc(C(=O)CC(=O)c2ccc(C(C)(C)C)cc2)cc1" turned out to be 1
